assayed-system: Alpha-1A adrenergic receptor (Rattus norvegicus, UniProt P43140)
Sequence (P43140 whole entry): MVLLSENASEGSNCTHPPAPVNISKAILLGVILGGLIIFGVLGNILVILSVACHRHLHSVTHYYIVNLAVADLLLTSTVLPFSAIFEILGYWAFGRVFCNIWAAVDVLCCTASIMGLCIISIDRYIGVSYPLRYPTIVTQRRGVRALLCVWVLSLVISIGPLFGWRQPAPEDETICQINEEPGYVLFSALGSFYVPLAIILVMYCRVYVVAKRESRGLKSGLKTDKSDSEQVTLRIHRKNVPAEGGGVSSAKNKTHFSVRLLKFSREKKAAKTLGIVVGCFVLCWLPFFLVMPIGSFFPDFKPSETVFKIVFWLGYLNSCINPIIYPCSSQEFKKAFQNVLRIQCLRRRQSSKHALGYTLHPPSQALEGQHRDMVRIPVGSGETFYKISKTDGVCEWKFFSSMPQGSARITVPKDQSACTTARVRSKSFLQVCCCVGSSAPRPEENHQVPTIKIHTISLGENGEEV
measurement-notes: DRUGMATRIX: Alpha-1A adrenergic receptor radioligand binding (ligand: prazosin)
Format: cell membranes, Wistar, Submaxillary gland, Membrane
assay-context: Not Active = under 50% inhibition at 10 µM; read-out: Ki
The reader will find reported pKi values listed item by item below.
Answer as the number alone; pKi is minus log10 of concentration in mol/L.

Observe how each entry below is paired with its result.
mol	assayed-system	pKi
CNCCC=C1c2ccccc2CCc2ccccc21	Alpha-1A adrenergic receptor (Rattus norvegicus, UniProt P43140)	6.91
CO[C@@H]1[C@@H](O[C@@H]2O[C@H](C)[C@@H](O[C@H]3C[C@@](C)(O)[C@@H](OC(=O)CC(C)C)[C@H](C)O3)[C@H](N(C)C)[C@H]2O)[C@@H](CC=O)C[C@@H](C)[C@@H](O)/C=C/C=C/C[C@@H](C)OC(=O)C[C@H]1O	Alpha-1A adrenergic receptor (Rattus norvegicus, UniProt P43140)	6.20

Let's switch to this molecule now.
Lookup: // pKi lookup, key: CN1C[C@H](C(=O)N[C@]2(C)O[C@@]3(O)[C@@H]4CCCN4C(=O)[C@H](Cc4ccccc4)N3C2=O)C=C2c3cccc4[nH]cc(c34)C[C@H]21
Found: 8.49

====

measurement-notes: DRUGMATRIX: Potassium Channel [KATP] radioligand binding (ligand: [3H] Glyburide)
Format: cell membranes, Membrane
assay-context: hit-t15; Not Active = under 50% inhibition at 10 µM
measure: IC50

Observe how each entry below is paired with its result.
substance	meas-value
OXALIPLATIN	Not Active
CARBOPLATIN	Not Active
CISPLATIN	Not Active
IVERMECTIN	Not Active

Let's switch to this substance now.
Lookup: // IC50 lookup, key: GOLD SODIUM THIOMALATE
Found: Not Active

====

assayed-system: Polyunsaturated fatty acid lipoxygenase ALOX15 (Oryctolagus cuniculus, UniProt P12530); also: in other assays of this panel Not Active means under 50% inhibition at 10 µM;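 also: inhibition of 15-lipoxygenase enzyme activity measured with linoleic acid as the substrate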
Sequence (P12530 whole entry): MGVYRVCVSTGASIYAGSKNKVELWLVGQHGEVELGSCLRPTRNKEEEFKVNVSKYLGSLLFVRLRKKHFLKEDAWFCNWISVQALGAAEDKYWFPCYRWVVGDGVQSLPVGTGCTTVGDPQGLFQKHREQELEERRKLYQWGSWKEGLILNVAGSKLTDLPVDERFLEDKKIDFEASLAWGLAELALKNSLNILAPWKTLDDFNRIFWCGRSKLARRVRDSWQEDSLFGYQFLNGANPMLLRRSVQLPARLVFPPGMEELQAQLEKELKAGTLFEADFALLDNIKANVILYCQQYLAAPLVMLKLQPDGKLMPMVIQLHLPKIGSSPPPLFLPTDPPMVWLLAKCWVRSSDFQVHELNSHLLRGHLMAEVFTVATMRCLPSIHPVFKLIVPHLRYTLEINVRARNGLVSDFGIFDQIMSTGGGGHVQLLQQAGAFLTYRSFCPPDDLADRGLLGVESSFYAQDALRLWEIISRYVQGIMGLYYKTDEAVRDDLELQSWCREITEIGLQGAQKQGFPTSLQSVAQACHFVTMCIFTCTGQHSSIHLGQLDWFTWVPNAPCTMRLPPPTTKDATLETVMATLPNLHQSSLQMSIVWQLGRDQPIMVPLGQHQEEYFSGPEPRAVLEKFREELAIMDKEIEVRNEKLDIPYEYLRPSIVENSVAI
measurement-notes: biochemical
Type: tissue-based, Reticulocytes
assay-context: reticulocytes
measure: IC50

mol	measure	meas-value
CC[C@H]1OC(=O)[C@H](C)[C@@H](O[C@H]2C[C@@](C)(OC)[C@@H](O)[C@H](C)O2)[C@H](C)[C@@H](O[C@@H]2O[C@H](C)C[C@H](N(C)C)[C@H]2O)[C@](C)(O)C[C@@H](C)/C(=N\OCOCCOC)[C@H](C)[C@@H](O)[C@]1(C)O	IC50	Not Active
C[C@]12CCC(=O)C=C1CC[C@@H]1[C@@H]2C(=O)C[C@@]2(C)[C@H]1CC[C@]2(O)C(=O)CO	IC50	Not Active

====

assayed-system: Alpha-1B adrenergic receptor (Rattus norvegicus, UniProt P15823)
Sequence (P15823 whole entry): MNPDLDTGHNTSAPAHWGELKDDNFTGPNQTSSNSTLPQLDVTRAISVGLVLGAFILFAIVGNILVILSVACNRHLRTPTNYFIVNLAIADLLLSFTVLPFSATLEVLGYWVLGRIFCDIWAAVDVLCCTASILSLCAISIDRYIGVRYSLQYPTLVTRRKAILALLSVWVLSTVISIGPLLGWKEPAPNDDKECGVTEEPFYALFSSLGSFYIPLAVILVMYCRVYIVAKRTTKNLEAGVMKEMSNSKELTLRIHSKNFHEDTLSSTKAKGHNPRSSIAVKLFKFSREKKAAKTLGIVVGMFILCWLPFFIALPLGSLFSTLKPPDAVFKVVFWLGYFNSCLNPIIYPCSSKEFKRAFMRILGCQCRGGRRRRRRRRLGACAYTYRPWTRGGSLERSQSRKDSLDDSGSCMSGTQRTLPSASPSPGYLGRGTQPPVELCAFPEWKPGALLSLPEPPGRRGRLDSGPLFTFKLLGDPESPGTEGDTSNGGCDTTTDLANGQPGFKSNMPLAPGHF
measurement-notes: DRUGMATRIX: Alpha-1B adrenergic receptor radioligand binding (ligand: prazosin)
Assay type: cell membranes, Wistar, Liver, Membrane
assay-context: Not Active = under 50% inhibition at 10 µM
measure: IC50

Observe how each entry below is paired with its result.
compound	IC50
CC(C)(S)[C@@H](N)C(=O)O [PENICILLAMINE]	Not Active
CC(=O)S[C@@H]1CC2=CC(=O)CC[C@]2(C)[C@H]2CC[C@@]3(C)[C@@H](CC[C@@]34CCC(=O)O4)[C@H]12 [SPIRONOLACTONE]	Not Active
CC(C)NC[C@H](O)COc1cccc2[nH]ccc12	Not Active
CCCCOC(=O)c1ccc(N)cc1 [BUTAMBEN]	Not Active
CC(=O)O[C@]1(C(C)=O)CC[C@H]2[C@@H]3C=C(Cl)C4=CC(=O)CC[C@]4(C)[C@H]3CC[C@@]21C [CHLORMADINONE ACETATE]	Not Active
COc1c(N2CCNC(C)C2)c(F)cc2c(=O)c(C(=O)O)cn(C3CC3)c12 (centres undefined) [GATIFLOXACIN]	Not Active
O=C1c2c(O)ccc(O)c2C(=O)c2c(NCCNCCO)ccc(NCCNCCO)c21 [MITOXANTRONE]	Not Active
Nc1nc2c(ncn2COC(CO)CO)c(=O)[nH]1 [GANCICLOVIR]	Not Active

Lookup: // IC50 lookup, key: C[C@]12Cc3c[nH]nc3C[C@@H]1CC[C@@H]1[C@@H]2CC[C@@]2(C)[C@H]1CC[C@]2(C)O [STANOZOLOL]
Found: Not Active

====

assayed-system: Protein kinase C alpha type (Homo sapiens, UniProt P17252); also: in other assays of this panel Not Active means under 50% inhibition at 10 µM;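 also: inhibition of PKCalpha kinase activity measured in an enzyme assay with histone as the phosphorylation substrate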
Assay type: cell-based
assay-context: sf9
measure: IC50

molecule	assayed-system	meas-value
CC(=O)[C@@]1(O)CC[C@H]2[C@@H]3C[C@H](C)C4=CC(=O)C=C[C@]4(C)[C@@]3(F)[C@@H](O)C[C@@]21C	Protein kinase C alpha type (Homo sapiens, UniProt P17252)	Not Active
Cc1c(-c2ccccc2)oc2c(C(=O)OCCN3CCCCC3)cccc2c1=O [FLAVOXATE]	Protein kinase C alpha type (Homo sapiens, UniProt P17252)	Not Active
Cc1[nH]cnc1CN1CCc2c(c3ccccc3n2C)C1=O	Protein kinase C alpha type (Homo sapiens, UniProt P17252)	Not Active
Cc1ncc([N+](=O)[O-])n1CC(C)O (stereo unspecified)	Protein kinase C alpha type (Homo sapiens, UniProt P17252)	Not Active
CC(=O)CCCCn1c(=O)c2c(ncn2C)n(C)c1=O	Protein kinase C alpha type (Homo sapiens, UniProt P17252)	Not Active
CC(CCc1ccccc1)NCC(O)c1ccc(O)c(C(N)=O)c1 (stereo unspecified)	Protein kinase C alpha type (Homo sapiens, UniProt P17252)	Not Active
NC(=O)c1ccccc1O [SALICYLAMIDE]	Protein kinase C alpha type (Homo sapiens, UniProt P17252)	Not Active
COc1ccc(C(CN(C)C)C2(O)CCCCC2)cc1 (stereo unspecified)	Protein kinase C alpha type (Homo sapiens, UniProt P17252)	Not Active

Lookup: // IC50 lookup, key: CCc1ccc(C(=O)C(C)CN2CCCCC2)cc1 (stereo unspecified)
Found: Not Active

Lookup: Next record, please: CCCSc1ccc2nc(NC(=O)OC)[nH]c2c1
Found: Not Active

Lookup: Next record, please: C[C@]12Cc3c[nH]nc3C[C@@H]1CC[C@@H]1[C@@H]2CC[C@@]2(C)[C@H]1CC[C@]2(C)O
Found: Not Active

Lookup: Next record, please: CCCCOC(=O)c1ccc(N)cc1
Found: Not Active

Lookup: Next record, please: Clc1ccc(C(c2ccccc2Cl)C(Cl)Cl)cc1 (stereo unspecified)
Found: Not Active

Lookup: Next record, please: O=C(CCCN1CCC(O)(c2ccc(Cl)cc2)CC1)c1ccc(F)cc1
Found: Not Active

Lookup: Next record, please: CC[C@H]1OC(=O)[C@H](C)[C@@H](O[C@H]2C[C@@](C)(OC)[C@@H](O)[C@H](C)O2)[C@H](C)[C@@H](O[C@@H]2O[C@H](C)C[C@H](N(C)C)[C@H]2O)[C@](C)(O)C[C@@H](C)/C(=N\OCOCCOC)[C@H](C)[C@@H](O)[C@]1(C)O
Found: Not Active

Lookup: Next record, please: CO[C@@H]1[C@@H](O[C@@H]2O[C@H](C)[C@@H](O[C@H]3C[C@@](C)(O)[C@@H](OC(=O)CC(C)C)[C@H](C)O3)[C@H](N(C)C)[C@H]2O)[C@@H](CC=O)C[C@@H](C)[C@@H](O)/C=C/C=C/C[C@@H](C)OC(=O)C[C@H]1O
Found: Not Active

====

assayed-system: UniProt:Q12809
Sequence (Q12809 whole entry): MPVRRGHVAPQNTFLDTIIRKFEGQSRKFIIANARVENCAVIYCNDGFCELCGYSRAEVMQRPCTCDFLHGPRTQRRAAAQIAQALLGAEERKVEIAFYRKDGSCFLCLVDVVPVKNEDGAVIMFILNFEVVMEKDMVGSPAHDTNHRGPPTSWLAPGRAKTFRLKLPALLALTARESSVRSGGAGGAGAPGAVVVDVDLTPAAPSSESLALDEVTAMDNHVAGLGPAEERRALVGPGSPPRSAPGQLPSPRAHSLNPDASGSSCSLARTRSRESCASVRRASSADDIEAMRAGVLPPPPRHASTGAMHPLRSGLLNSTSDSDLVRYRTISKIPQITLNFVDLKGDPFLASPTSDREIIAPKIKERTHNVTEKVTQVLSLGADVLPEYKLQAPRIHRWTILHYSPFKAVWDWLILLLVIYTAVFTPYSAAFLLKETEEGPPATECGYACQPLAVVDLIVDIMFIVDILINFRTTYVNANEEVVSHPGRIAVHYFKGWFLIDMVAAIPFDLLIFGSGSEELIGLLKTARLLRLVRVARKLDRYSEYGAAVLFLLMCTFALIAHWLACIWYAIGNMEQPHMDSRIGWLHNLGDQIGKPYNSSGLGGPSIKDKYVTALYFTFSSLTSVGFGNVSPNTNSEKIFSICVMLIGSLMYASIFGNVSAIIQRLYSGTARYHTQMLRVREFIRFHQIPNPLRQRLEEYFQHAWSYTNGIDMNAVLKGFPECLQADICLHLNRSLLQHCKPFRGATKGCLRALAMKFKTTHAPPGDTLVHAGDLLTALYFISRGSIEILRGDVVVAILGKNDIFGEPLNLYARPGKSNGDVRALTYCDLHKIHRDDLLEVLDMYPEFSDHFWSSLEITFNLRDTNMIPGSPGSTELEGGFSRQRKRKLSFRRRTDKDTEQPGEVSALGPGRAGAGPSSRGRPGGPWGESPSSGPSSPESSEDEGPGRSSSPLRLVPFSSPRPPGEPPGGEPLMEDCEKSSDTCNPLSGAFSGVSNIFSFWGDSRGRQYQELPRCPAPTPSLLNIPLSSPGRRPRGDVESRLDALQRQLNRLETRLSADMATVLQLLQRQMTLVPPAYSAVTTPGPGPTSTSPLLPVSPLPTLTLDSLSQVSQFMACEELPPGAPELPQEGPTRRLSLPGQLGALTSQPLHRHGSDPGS
assay-context: hek293
measure: IC50

mol	assayed-system	measure	meas-value
CC(=O)S[C@@H]1CC2=CC(=O)CC[C@]2(C)[C@H]2CC[C@@]3(C)[C@@H](CC[C@@]34CCC(=O)O4)[C@H]12	UniProt:Q12809	IC50	Not Active
CCCc1cc(=O)[nH]c(=S)[nH]1	UniProt:Q12809	IC50	Not Active
CO[C@@H]1[C@@H](O[C@@H]2O[C@H](C)[C@@H](O[C@H]3C[C@@](C)(O)[C@@H](OC(=O)CC(C)C)[C@H](C)O3)[C@H](N(C)C)[C@H]2O)[C@@H](CC=O)C[C@@H](C)[C@@H](O)/C=C/C=C/C[C@@H](C)OC(=O)C[C@H]1O	UniProt:Q12809	IC50	Not Active
NC(=O)c1ncn([C@@H]2O[C@H](CO)[C@@H](O)[C@H]2O)n1	UniProt:Q12809	IC50	Not Active
CN1C[C@H](C(=O)N[C@]2(C)O[C@@]3(O)[C@@H]4CCCN4C(=O)[C@H](Cc4ccccc4)N3C2=O)C=C2c3cccc4[nH]cc(c34)C[C@H]21	UniProt:Q12809	IC50	Not Active

Let's switch to this compound now.
Lookup: // IC50 lookup, key: Nc1nc2c(ncn2COC(CO)CO)c(=O)[nH]1
Found: Not Active
